Measured pIC50 values are reported for all entries that follow.
# target-system: Bcl-2
# Sequence (chain, as listed by the source): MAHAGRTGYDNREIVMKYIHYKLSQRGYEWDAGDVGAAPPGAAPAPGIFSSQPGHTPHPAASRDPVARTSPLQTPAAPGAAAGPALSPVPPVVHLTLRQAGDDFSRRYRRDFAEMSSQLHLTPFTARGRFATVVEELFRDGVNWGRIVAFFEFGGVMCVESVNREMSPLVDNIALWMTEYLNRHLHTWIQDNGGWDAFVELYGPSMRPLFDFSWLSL
# protocol-text: competition phage ELISA
Convention used: pIC50 is expressed as -log10 of the molar concentration.

binder: NLWAAQRYGRELRRMSDAFVDSFKKG (M13 phage display: FLAG-26mer-GGGT-g3(249-406)) [Bad BH3 E18A, phage-displayed]
measurement-type: pIC50
experimental-value: 7.54

# input binder: NLWAAQRYGRELRRMSDEFADSFKKG (M13 phage display: FLAG-26mer-GGGT-g3(249-406)) [Bad BH3 V20A, phage-displayed] ; wanted: its pIC50
7.89

Likewise for ALWAAQRYGRELRRMSDEFVDSFKKG (M13 phage display: FLAG-26mer-GGGT-g3(249-406)) [Bad BH3 N1A, phage-displayed] ?
8.00

Likewise for NLWAAQRYGRELRRMSDEFVDAFKKG (M13 phage display: FLAG-26mer-GGGT-g3(249-406)) [Bad BH3 S22A, phage-displayed] ?
7.72
